- tested-on: Bcl-xL, Q07817
- Sequence (Q07817 1-209): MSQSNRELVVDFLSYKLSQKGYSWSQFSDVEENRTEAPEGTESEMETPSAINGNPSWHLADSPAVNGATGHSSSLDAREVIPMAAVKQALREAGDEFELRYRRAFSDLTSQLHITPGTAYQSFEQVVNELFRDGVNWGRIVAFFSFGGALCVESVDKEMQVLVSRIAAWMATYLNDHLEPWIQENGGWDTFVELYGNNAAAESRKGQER
- method-notes: peptide SPOT array, c-Myc-tagged receptor at 1 uM or 100 nM, anti-c-Myc-Cy3
Can you tell me SPOT signal as a fraction of Bim BH3's signal on the same receptor and array for the items I'm about to list?
Just the number.

Data request: So what's the measured SPOT signal as a fraction of Bim BH3's signal on the same receptor and array for this one? RLAHEHHCLRIKILLDCYYCVSGLPE
Data returned: 0.02

Data request: So what's the measured SPOT signal as a fraction of Bim BH3's signal on the same receptor and array for this one? LCQLSCVSKLMRDVLGSLLQSRGMVI [FBXO30]
Data returned: 0.38

Data request: So what's the measured SPOT signal as a fraction of Bim BH3's signal on the same receptor and array for this one? PALLVHWAKCLQKMLRGLNSSYDQQE [RGPD2]
Data returned: 0.55

Data request: So what's the measured SPOT signal as a fraction of Bim BH3's signal on the same receptor and array for this one? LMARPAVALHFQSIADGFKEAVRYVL [SOS2]
Data returned: 0.85

Data request: So what's the measured SPOT signal as a fraction of Bim BH3's signal on the same receptor and array for this one? RVCPYYLSRNLKQQLDIIFMPYNYLL [RTEL1]
Data returned: 1.16

Data request: So what's the measured SPOT signal as a fraction of Bim BH3's signal on the same receptor and array for this one? RLAHEHHCLRIKILGDCYYCVSGLPE
Data returned: 0.03

Data request: So what's the measured SPOT signal as a fraction of Bim BH3's signal on the same receptor and array for this one? HRNTRNLAAFLGKALDLLRFPVKQLY [RP1L1]
Data returned: 0.47

Data request: So what's the measured SPOT signal as a fraction of Bim BH3's signal on the same receptor and array for this one? HGTSSRIGSSMKSVGEVMAIGRTFEE [CPS1]
Data returned: 0.02

Data request: So what's the measured SPOT signal as a fraction of Bim BH3's signal on the same receptor and array for this one? EQWAREIGAQLRRMLDDLNAQYERRR [BBC3]
Data returned: 0.19

Data request: So what's the measured SPOT signal as a fraction of Bim BH3's signal on the same receptor and array for this one? DVNIPDLIKQLDILGDNGNLRNEEQV [JAKMIP2]
Data returned: 0.02

Data request: So what's the measured SPOT signal as a fraction of Bim BH3's signal on the same receptor and array for this one? LASIGGLAARLQLWAFKLDYDSMERE [FHOD1]
Data returned: 0.03

Data request: So what's the measured SPOT signal as a fraction of Bim BH3's signal on the same receptor and array for this one? LRVSTKIGSCMKSVGEVMGIGRSFEE [CAD]
Data returned: 0.05

Data request: So what's the measured SPOT signal as a fraction of Bim BH3's signal on the same receptor and array for this one? AFTEREASEIDKSIGEAIQYLHSINI [MAPKAPK2]
Data returned: 0.02

Data request: So what's the measured SPOT signal as a fraction of Bim BH3's signal on the same receptor and array for this one? VEQFSEASQQDAELSEVLVLRLENYE [HAP1]
Data returned: 0.02
